Source listed as patent US20250205349A1.

Tested on: HCC827
Experiment: In vitro efficacy of naked antibodies and Compound d3, d38, d39 and d44, MTS
Format: cell-based
Conditions: Homo sapiens, 1 uM starting concentration
Procedure: In a 96-well plate, cells were plated at an appropriate cell density. After 24 h, the drugs were added. […] After 4 days, the MTS reagent was taken out, thawed at room temperature in the dark, and vortex mixed thoroughly. […] After the reaction, the 96-well plate was taken out for testing the OD490 nm absorption on an elisa plate, and the test data were recorded, organized, analyzed and stored.
This section presents compounds with their documented IC50 values.

smiles-structure | target-of-assay | IC50 (nM)
CC[C@@]1(O)C(=O)OCc2c1cc1n(c2=O)Cc2c-1nc1cc(F)c(C)c3c1c2[C@@H](NC(=O)[C@H](C)O)CC3 | HCC827 | 0.778
CC[C@@]1(O)C(=O)OCc2c1cc1n(c2=O)Cc2c-1nc1cc(F)c(C)c3c1c2[C@H](NC(=O)[C@@H](O)C1CC1)CC3 | HCC827 | 0.092
CC[C@@]1(O)C(=O)OCc2c1cc1n(c2=O)Cc2c-1nc1cc(F)c(C)c3c1c2[C@H](NC(=O)C1(CO)CCC1)CC3 | HCC827 | 0.038
